- ASSAY: collision cross section of modified peptide (TIMS, N2, iRT-aligned); higher = larger / more extended gas-phase ion
- CONDITION CONTEXT: charge state: 2; modification: hydroxyisobutyryl
EXPERIMENTAL READOUT: collision cross section (Å²)
Return type: number; implicit unit Å².

Request: So what's the measured collision cross section for this one? KYEEIDNAPEER [_K(hydroxyisobutyryl)YEEIDNAPEER_]
Response: 416.12

Request: Same question, VFIGNLNTLVVKK [_VFIGNLNTLVVK(hydroxyisobutyryl)K_] this time
Response: 416.95

Request: Same question, AGPNASIISLKSDK [_AGPNASIISLK(hydroxyisobutyryl)SDK_] this time
Response: 415.63

Request: Same question, IINEPTAAAIAYGLDKK [_IINEPTAAAIAYGLDK(hydroxyisobutyryl)K_] this time
Response: 464.51

Request: Same question, VGEFSGANKEK [_VGEFSGANK(hydroxyisobutyryl)EK_] this time
Response: 364.17

Request: Same question, LTSLNVKYNNDK [_LTSLNVK(hydroxyisobutyryl)YNNDK_] this time
Response: 415.97

Request: Same question, ISSNFSSIIAEKLR [_ISSNFSSIIAEK(hydroxyisobutyryl)LR_] this time
Response: 431.4

Request: Same question, DAEAAEATAEGALKAEK [_DAEAAEATAEGALK(hydroxyisobutyryl)AEK_] this time
Response: 435.11

Request: Same question, FLQEFYQDDELGKK [_FLQEFYQDDELGK(hydroxyisobutyryl)K_] this time
Response: 452.81

Request: Same question, IHVQSSSDSSDEPAEKR [_IHVQSSSDSSDEPAEK(hydroxyisobutyryl)R_] this time
Response: 455.71

Request: Same question, GETASKLQSEISR [_GETASK(hydroxyisobutyryl)LQSEISR_] this time
Response: 394.7

Request: Same question, FDDTNPEKEEAK [_FDDTNPEK(hydroxyisobutyryl)EEAK_] this time
Response: 401.52

Request: Same question, ASDTSSETVFGKR [_ASDTSSETVFGK(hydroxyisobutyryl)R_] this time
Response: 403.06

Request: Same question, PGGEGPQCEKTTDVK [_PGGEGPQCEK(hydroxyisobutyryl)TTDVK_] this time
Response: 425.58

Request: Same question, VLDSGAPIKIPVGPETLGR [_VLDSGAPIK(hydroxyisobutyryl)IPVGPETLGR_] this time
Response: 472.45

Request: Same question, AGQKLIDVNHYAK [_AGQK(hydroxyisobutyryl)LIDVNHYAK_] this time
Response: 436.67

Request: Same question, LLEQKTQESQK [_LLEQK(hydroxyisobutyryl)TQESQK_] this time
Response: 401.39

Request: Same question, TVSKVDDFLANEAK [_TVSK(hydroxyisobutyryl)VDDFLANEAK_] this time
Response: 426.08

Request: Same question, IISSIEQKEENK [_IISSIEQK(hydroxyisobutyryl)EENK_] this time
Response: 408.38

Request: Same question, SSFAYKDQNENR [_SSFAYK(hydroxyisobutyryl)DQNENR_] this time
Response: 405.04

Request: Same question, VDIDVPDVNIEGPDAKLK [_VDIDVPDVNIEGPDAK(hydroxyisobutyryl)LK_] this time
Response: 489.94

Request: Same question, SLKLNTAEDAK [_SLK(hydroxyisobutyryl)LNTAEDAK_] this time
Response: 378.64

Request: Same question, LEKTIDDLEEK [_LEK(hydroxyisobutyryl)TIDDLEEK_] this time
Response: 411.13

Request: Same question, SPSDSGYSYETIGKTTK [_SPSDSGYSYETIGK(hydroxyisobutyryl)TTK_] this time
Response: 457.69

Request: Same question, VGIDTPDIDIHGPEGKLK [_VGIDTPDIDIHGPEGK(hydroxyisobutyryl)LK_] this time
Response: 500.35

Request: Same question, IQTKAGEATVK [_IQTK(hydroxyisobutyryl)AGEATVK_] this time
Response: 374.42

Request: Same question, LTEKELAEAASK [_LTEK(hydroxyisobutyryl)ELAEAASK_] this time
Response: 392.48

Request: Same question, TLQKQSVVYGGK [_TLQK(hydroxyisobutyryl)QSVVYGGK_] this time
Response: 398.93

Request: Same question, LQDVSGQLSSSKK [_LQDVSGQLSSSK(hydroxyisobutyryl)K_] this time
Response: 404.16

Request: Same question, ASEALLKQLK [_ASEALLK(hydroxyisobutyryl)QLK_] this time
Response: 382.21

Request: Same question, LGVATVAKGVCGACK [_LGVATVAK(hydroxyisobutyryl)GVCGACK_] this time
Response: 419.46

Request: Same question, FSAYIKNSNPALNDNLEK [_FSAYIK(hydroxyisobutyryl)NSNPALNDNLEK_] this time
Response: 489.27

Request: Same question, SITHSTVGSKGEK [_SITHSTVGSK(hydroxyisobutyryl)GEK_] this time
Response: 401.03

Request: Same question, TQAYQDQKPGTSGLR [_TQAYQDQK(hydroxyisobutyryl)PGTSGLR_] this time
Response: 431.22

Request: Same question, PSVGSQSNQAGQGKR [_PSVGSQSNQAGQGK(hydroxyisobutyryl)R_] this time
Response: 418.62

Request: Same question, ALASIDSKLNQAK [_ALASIDSK(hydroxyisobutyryl)LNQAK_] this time
Response: 410.87

Request: Same question, DYSSGFGGKYGVQADR [_DYSSGFGGK(hydroxyisobutyryl)YGVQADR_] this time
Response: 442.2

Request: Same question, VDVEVPDVSLEGPEGKLK [_VDVEVPDVSLEGPEGK(hydroxyisobutyryl)LK_] this time
Response: 470.57

Request: Same question, PSVSTKLISK [_PSVSTK(hydroxyisobutyryl)LISK_] this time
Response: 359.8

Request: Same question, ASAISIKLGSSK [_ASAISIK(hydroxyisobutyryl)LGSSK_] this time
Response: 374.73

====

- ASSAY: collision cross section of modified peptide (TIMS, N2, iRT-aligned); higher = larger / more extended gas-phase ion
- CONDITION CONTEXT: charge state: 2; modification: Citrullination (R)
EXPERIMENTAL READOUT: collision cross section (Å²)
Return type: number; implicit unit Å².

Request: So what's the measured collision cross section for this one? GRGVGSPEPGPTAPYLGR [_GR(Citrullination (R))GVGSPEPGPTAPYLGR_]
Response: 422.7

Request: Same question, GGSAGGRGFFR [_GGSAGGR(Citrullination (R))GFFR_] this time
Response: 340.82

Request: Same question, GRGAPPPPPSR [_GR(Citrullination (R))GAPPPPPSR_] this time
Response: 339.21

Request: Same question, GPPRGGPGGELPR [_GPPR(Citrullination (R))GGPGGELPR_] this time
Response: 368.26

Request: Same question, VTPHPSPRGSPLPTPK [_VTPHPSPR(Citrullination (R))GSPLPTPK_] this time
Response: 409.96

Request: Same question, RLPTTGYLVYR [_R(Citrullination (R))LPTTGYLVYR_] this time
Response: 383.11

Request: Same question, AQVLAGGRGK [_AQVLAGGR(Citrullination (R))GK_] this time
Response: 333.54

Request: Same question, RGVGAGAIAK [_R(Citrullination (R))GVGAGAIAK_] this time
Response: 319.31

Request: Same question, YSRGAGLGFSTAPNK [_YSR(Citrullination (R))GAGLGFSTAPNK_] this time
Response: 397.83

Request: Same question, FGSRGGPGGGFR [_FGSR(Citrullination (R))GGPGGGFR_] this time
Response: 349.6

Request: Same question, GSYLGGYSAGRGIYSR [_GSYLGGYSAGR(Citrullination (R))GIYSR_] this time
Response: 429.9

Request: Same question, VRFHNPR [_VR(Citrullination (R))FHNPR_] this time
Response: 325.95

Request: Same question, GAPGGRGAQLSVPSPAR [_GAPGGR(Citrullination (R))GAQLSVPSPAR_] this time
Response: 412.31

Request: Same question, PGTPAGYGRGR [_PGTPAGYGR(Citrullination (R))GR_] this time
Response: 345.81

Request: Same question, VRLQTTLR [_VR(Citrullination (R))LQTTLR_] this time
Response: 344.05

Request: Same question, RLPNVHGR [_R(Citrullination (R))LPNVHGR_] this time
Response: 340.93

Request: Same question, GLATFPSRGAK [_GLATFPSR(Citrullination (R))GAK_] this time
Response: 353.86

Request: Same question, AGRGFSLEELR [_AGR(Citrullination (R))GFSLEELR_] this time
Response: 372.54

Request: Same question, GEGGFGGRGGGR [_GEGGFGGR(Citrullination (R))GGGR_] this time
Response: 329.76

Request: Same question, SFDEVEGVFGRGGGR [_SFDEVEGVFGR(Citrullination (R))GGGR_] this time
Response: 404.76

Request: Same question, SHLRHAIPSAER [_SHLR(Citrullination (R))HAIPSAER_] this time
Response: 388.58

Request: Same question, GIGRGTVQALHATGAR [_GIGR(Citrullination (R))GTVQALHATGAR_] this time
Response: 453.22

Request: Same question, PLPVALQTRLAK [_PLPVALQTR(Citrullination (R))LAK_] this time
Response: 391.36

Request: Same question, STNVTVAAARGIK [_STNVTVAAAR(Citrullination (R))GIK_] this time
Response: 395.23

Request: Same question, SGRGGNFGFGDSR [_SGR(Citrullination (R))GGNFGFGDSR_] this time
Response: 379.38

Request: Same question, SRFYSGFNSR [_SR(Citrullination (R))FYSGFNSR_] this time
Response: 364.39

Request: Same question, PLRAASPFR [_PLR(Citrullination (R))AASPFR_] this time
Response: 334.99

Request: Same question, FRSGNYR [_FR(Citrullination (R))SGNYR_] this time
Response: 327.94

Request: Same question, FGRGTGLTQPSQR [_FGR(Citrullination (R))GTGLTQPSQR_] this time
Response: 390.81

Request: Same question, SGGYGGSRDYYSSR [_SGGYGGSR(Citrullination (R))DYYSSR_] this time
Response: 397.63

Request: Same question, YRGDYDR [_YR(Citrullination (R))GDYDR_] this time
Response: 333.6

Request: Same question, APPIDRSILPTAPR [_APPIDR(Citrullination (R))SILPTAPR_] this time
Response: 410.86

Request: Same question, AAHGRGALAEAAR [_AAHGR(Citrullination (R))GALAEAAR_] this time
Response: 378.79

Request: Same question, VEPGSLESSPGLGRGR [_VEPGSLESSPGLGR(Citrullination (R))GR_] this time
Response: 418.2

Request: Same question, VEPIHAVVLPRGK [_VEPIHAVVLPR(Citrullination (R))GK_] this time
Response: 406.23

Request: Same question, LLALSGPGGGRGR [_LLALSGPGGGR(Citrullination (R))GR_] this time
Response: 366.92

Request: Same question, GGGFGAHGRGR [_GGGFGAHGR(Citrullination (R))GR_] this time
Response: 343.86

Request: Same question, GTGRGGGGGGGGGAPR [_GTGR(Citrullination (R))GGGGGGGGGAPR_] this time
Response: 349.34

Request: Same question, PRGVISTPVIR [_PR(Citrullination (R))GVISTPVIR_] this time
Response: 367.21

Request: Same question, GRGAANDSTQFTVAGR [_GR(Citrullination (R))GAANDSTQFTVAGR_] this time
Response: 411.84

Request: Same question, GARLPGPVSSAR [_GAR(Citrullination (R))LPGPVSSAR_] this time
Response: 355.27
